EXPERIMENTAL_SYSTEM: Interferon-induced, double-stranded RNA-activated protein kinase (Homo sapiens, UniProt P19525)
Sequence (P19525 whole entry): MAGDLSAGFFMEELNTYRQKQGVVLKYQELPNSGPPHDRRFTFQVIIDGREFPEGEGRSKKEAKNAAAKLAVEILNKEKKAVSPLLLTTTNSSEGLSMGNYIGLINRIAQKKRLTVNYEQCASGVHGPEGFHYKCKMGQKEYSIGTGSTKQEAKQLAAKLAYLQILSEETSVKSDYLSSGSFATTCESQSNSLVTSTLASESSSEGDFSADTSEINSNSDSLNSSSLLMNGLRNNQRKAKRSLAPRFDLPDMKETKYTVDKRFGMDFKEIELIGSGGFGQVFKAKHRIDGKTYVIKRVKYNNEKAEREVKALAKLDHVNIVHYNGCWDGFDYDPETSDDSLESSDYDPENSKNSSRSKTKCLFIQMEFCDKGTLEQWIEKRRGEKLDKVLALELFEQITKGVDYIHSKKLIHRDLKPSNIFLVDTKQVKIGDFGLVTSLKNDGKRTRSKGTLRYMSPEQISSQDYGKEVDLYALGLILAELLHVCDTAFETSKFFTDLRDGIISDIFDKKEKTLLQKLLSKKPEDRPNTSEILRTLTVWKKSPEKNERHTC
TEST_DETAILS: Inhibition of human recombinant PKR autophosphorylation using poly[I:C] after 10 mins by luminescent assay
RECORDED_ENDPOINT: IC50 (µM)
Answer in µM, number only, no unit symbol.

(Q) Give the measured IC50 for CN1CCN(c2ccc(Nc3ncnc4ccc([N+](=O)[O-])cc34)cc2)CC1
(A) 15

(Q) Give the measured IC50 for Fc1ccc(Nc2nccc(-c3c(-c4ccccc4)[nH]c4ccccc34)n2)cc1
(A) 7

(Q) Give the measured IC50 for Cc1[nH]c2ccccc2c1-c1ccnc(Nc2ccccc2Cl)n1
(A) 19

(Q) Give the measured IC50 for Nc1nc(Nc2ccc(OC(F)(F)F)cc2)c2nc[nH]c2n1
(A) 20

(Q) Give the measured IC50 for N#CCCc1ccc2c(c1)C1Nc3ccc([N+](=O)[O-])cc3C1CC(=O)N2 (stereo unspecified)
(A) 3.5

(Q) Give the measured IC50 for O=c1nncc(Nc2ccc3cn[nH]c3c2)[nH]1
(A) 13

(Q) Give the measured IC50 for O=C1NC(=O)c2c1c1c3ccccc3[nH]c1c1[nH]c3cc(Br)ccc3c21
(A) 6

(Q) Give the measured IC50 for Nc1ncnc2[nH]nc(Nc3ccc(F)cc3)c12
(A) 5

----------
EXPERIMENTAL_SYSTEM: Interferon-induced, double-stranded RNA-activated protein kinase (Homo sapiens, UniProt P19525)
TEST_DETAILS: Inhibition of human recombinant PKR autophosphorylation using poly[I:C] after 10 mins by luminescent assay
Provide the recorded pIC50 for the entries that follow.
Lab note: report pIC50 as minus log10 of the concentration in molar units, number only.

(Q) Give the measured pIC50 for O=C1NC(=O)/C(=C/c2c[nH]c3ccccc23)N1
(A) 4.98

(Q) Give the measured pIC50 for N#Cc1cnc2cnc(NCc3cccnc3)cc2c1Nc1ccc(F)c(Cl)c1
(A) 6.60

(Q) Give the measured pIC50 for Cc1[nH]c2ccccc2c1-c1ccnc(Nc2ccc(Cl)cc2)n1
(A) 6.22

(Q) Give the measured pIC50 for CSc1cccc(N/C=C2\C(=O)Nc3ccccc32)c1
(A) 5.60

(Q) Give the measured pIC50 for COc1ccc(Nc2nccc(-c3c(C)[nH]c4ccc(OC)cc34)n2)cc1
(A) 4.26

----------
Provide the recorded pIC50 for the entries that follow.
EXPERIMENTAL_SYSTEM: Interferon-induced, double-stranded RNA-activated protein kinase (Homo sapiens, UniProt P19525)
TEST_DETAILS: Inhibition of human recombinant PKR autophosphorylation using poly[I:C] after 10 mins by luminescent assay
Lab note: report pIC50 as minus log10 of the concentration in molar units, number only.

(Q) Give the measured pIC50 for C=C1NNC(=O)/C1=N\Nc1ccc(S(N)(=O)=O)cc1
(A) 4.96

(Q) Give the measured pIC50 for Cc1cc(Nc2nc(-c3ccccc3)nc3ccccc23)[nH]n1
(A) 4.82

(Q) Give the measured pIC50 for NCc1ccc(C(=O)N/N=C2\C(=O)Nc3ccc(Br)cc32)cc1
(A) 4.92

(Q) Give the measured pIC50 for c1cc(-c2cnn3cc(-c4ccc(OCCN5CCCCC5)cc4)cnc23)ccn1
(A) 4.80

(Q) Give the measured pIC50 for Cc1[nH]c2ccccc2c1-c1ccnc(Nc2ccc(F)cc2)n1
(A) 6.82

(Q) Give the measured pIC50 for O=C(Nc1cccc(Nc2nccc(Nc3cccc(C(F)(F)F)c3)n2)c1)C1CC1
(A) 4.70

----------
EXPERIMENTAL_SYSTEM: Interferon-induced, double-stranded RNA-activated protein kinase (Homo sapiens, UniProt P19525)
TEST_DETAILS: Competitive inhibition of human recombinant PKR
RECORDED_ENDPOINT: pKi
Lab note: report pKi as minus log10 of the concentration in molar units, number only.

(Q) Give the measured pKi for Cc1[nH]c2ccccc2c1-c1ccnc(NCCc2c[nH]c3ccccc23)n1
(A) 5.47

----------
Provide the recorded log10 of IC50 for the entries that follow.
EXPERIMENTAL_SYSTEM: Interferon-induced, double-stranded RNA-activated protein kinase (Homo sapiens)
TEST_DETAILS: Inhibition of human recombinant PKR autophosphorylation using poly[I:C] after 10 mins by luminescent assay
Base-10 log of IC50, unit µM.

(Q) Give the measured log10 of IC50 for O=C1Cc2ccc(Oc3ccc4c(c3)NC(=O)C4)cc2N1
(A) 1.15

(Q) Give the measured log10 of IC50 for O=C1NCc2c1c1c3ccccc3n3c1c1c2c2ccccc2n1C1CCC3O1 (stereo not drawn)
(A) -0.12

(Q) Give the measured log10 of IC50 for COc1ccc2c(c1)/C(=C/c1cnc[nH]1)C(=O)N2 [SU-9516]
(A) 0.70

(Q) Give the measured log10 of IC50 for NC(=O)Nc1sc(-c2ccc(F)cc2)cc1C(N)=O
(A) -0.60

(Q) Give the measured log10 of IC50 for Oc1c2ccccc2c2c3c(cccc13)N=N2 [SP-600125]
(A) 0.90

(Q) Give the measured log10 of IC50 for COCCCNc1nccc(-c2c(C)[nH]c3ccc(Cl)cc23)n1
(A) 0.48

(Q) Give the measured log10 of IC50 for Cc1[nH]c2ccc(Cl)cc2c1-c1ccnc(Nc2ccc(N3CCN(C)CC3)cc2)n1
(A) -1.00

(Q) Give the measured log10 of IC50 for Cc1[nH]c2ccccc2c1-c1ccnc(N2CCOCC2)n1
(A) 1.95

(Q) Give the measured log10 of IC50 for Nc1nc(Nc2ccc(S(N)(=O)=O)cc2)nn1C(=S)Nc1c(F)cccc1F
(A) 0.20

(Q) Give the measured log10 of IC50 for COC(=O)c1ccc2c(-c3ccnc(NCCO)n3)c[nH]c2c1
(A) 0.95

(Q) Give the measured log10 of IC50 for FC(F)(F)c1nnc2ccc(NCCc3c[nH]c4ccccc34)nn12
(A) 1.28

(Q) Give the measured log10 of IC50 for COc1ccc2[nH]c(C)c(-c3ccnc(Nc4ccc(Cl)cc4)n3)c2c1
(A) 1.70

(Q) Give the measured log10 of IC50 for COc1ccc2[nH]c(C)c(-c3ccnc(NC4CCCC4)n3)c2c1
(A) 0.18

(Q) Give the measured log10 of IC50 for Nc1cccc(-c2cc3c(Oc4cccc(O)c4)ncnc3[nH]2)c1
(A) 0.60

(Q) Give the measured log10 of IC50 for Nc1n[nH]c2nc3ccccc3nc12 [QUINOXALINE1]
(A) 0.78

(Q) Give the measured log10 of IC50 for c1ccc(-c2[nH]c3ccccc3c2-c2ccnc(NCCN3CCOCC3)n2)cc1
(A) 1.08

(Q) Give the measured log10 of IC50 for OCCNc1nccc(-c2c[nH]c3ccccc23)n1
(A) 1.04

----------
EXPERIMENTAL_SYSTEM: Interferon-induced, double-stranded RNA-activated protein kinase (Homo sapiens)
TEST_DETAILS: Inhibition of human recombinant PKR autophosphorylation using poly[I:C] after 10 mins by luminescent assay
Provide the recorded pIC50 for the entries that follow.
Lab note: report pIC50 as minus log10 of the concentration in molar units, number only.

(Q) Write pIC50 of O=C1NC(=O)/C(=C\c2c[nH]c3ccccc23)N1 ; system used: Interferon-induced, double-stranded RNA-activated protein kinase (Homo sapiens)
(A) 4.96

(Q) Write pIC50 of C=C1NNC(=O)N=C1Nc1ccc2cn[nH]c2c1 ; system used: Interferon-induced, double-stranded RNA-activated protein kinase (Homo sapiens)
(A) 4.80

(Q) Write pIC50 of COC(=O)c1ccc2c(-c3ccnc(NCCN4CCOCC4)n3)c[nH]c2c1 ; system used: Interferon-induced, double-stranded RNA-activated protein kinase (Homo sapiens)
(A) 4.74

(Q) Write pIC50 of O=C(O)/C=C/c1cc(Br)c(Br)c(Br)c1Br ; system used: Interferon-induced, double-stranded RNA-activated protein kinase (Homo sapiens)
(A) 5.15

(Q) Write pIC50 of CC(C)n1cnc2c(Nc3cccc(Cl)c3)nc(NCCO)nc21 ; system used: Interferon-induced, double-stranded RNA-activated protein kinase (Homo sapiens)
(A) 4.80

(Q) Write pIC50 of COc1ccc2c(c1)[nH]c1c(N3CCN(C(N)=O)CC3)ncnc12 ; system used: Interferon-induced, double-stranded RNA-activated protein kinase (Homo sapiens)
(A) 4.89

(Q) Write pIC50 of Cc1[nH]c2ccccc2c1-c1ccnc(Nc2cccnc2)n1 ; system used: Interferon-induced, double-stranded RNA-activated protein kinase (Homo sapiens)
(A) 7.00

(Q) Write pIC50 of Cc1[nH]c2ccccc2c1-c1ccnc(NCCO)n1 ; system used: Interferon-induced, double-stranded RNA-activated protein kinase (Homo sapiens)
(A) 4.96

----------
Provide the recorded IC50 for the entries that follow.
EXPERIMENTAL_SYSTEM: Interferon-induced, double-stranded RNA-activated protein kinase (Homo sapiens)
TEST_DETAILS: Inhibition of human recombinant PKR autophosphorylation using poly[I:C] after 10 mins by luminescent assay
Answer in µM, number only, no unit symbol.

(Q) Give the measured IC50 for COc1ccc2c(c1)/C(=N/NC(=O)c1cc(Br)ccc1O)C(=O)N2
(A) 9.4

(Q) Give the measured IC50 for Cc1[nH]c2ccc(Cl)cc2c1-c1ccnc(NCc2cccnc2)n1
(A) 48

(Q) Give the measured IC50 for Cc1[nH]c2ccccc2c1-c1ccnc(Nc2cccc(Cl)c2)n1
(A) 0.3

(Q) Give the measured IC50 for Nc1nc(Nc2ccc(S(N)(=O)=O)cc2)nn1C(=O)Nc1c(F)cccc1F
(A) 8

(Q) Give the measured IC50 for O=C1NC(=O)/C(=C/c2c[nH]c3ccc(Br)cc23)N1
(A) 4
